All figures here come from PubChem BioAssay (NCI).

System: OVCAR-5 ovarian
ASSAY TEXT: NCI tumour cell line growth inhibition, 48 h
TGI: recorded values

# count of solved cases: 3
Prompt line: Note down TGI recorded for "N#Cc1c(N)nn(C(=O)c2ccc(NC(=O)c3ccccn3)cc2)c1-c1ccc(Cl)cc1"
Response line: > 100 µM

Prompt line: For the compound "Clc1ccc(Cl)c(N/N=C\c2c[nH]c3ccccc23)c1" , give its reported TGI.
Response line: 36.9 µM

Prompt line: Answer with reported TGI of "CCCSc1cc(Cl)c(C)cc1S(=O)(=O)n1ccnc1OCCCN(C)C"
Response line: > 100 µM

---
Prompt line: Item "C[C@]12CC[C@H]3[C@@H](CCC4=CC(=O)C=C[C@@]43O)[C@@H]1CCC2=O" : provide TGI
Response line: > 100 µM

Prompt line: Note down TGI recorded for COc1ccc(C2SC(N)=Nc3c2c(C)nn3C(=O)c2ccncc2)cc1 (centres undefined)
Response line: > 100 µM

Prompt line: Identify measured TGI corresponding to "O=c1c2ccccc2oc2c1ccc1ncccc12"
Response line: 16.1 µM

Prompt line: Identify the reported TGI for the following entry. "Cc1cc(NS(=O)(=O)c2ccc(NC(=O)c3ccc4nc5ccccc5c(Nc5ccc(S(=O)(=O)N=C(N)N)cc5)c4c3)cc2)no1"
Response line: 31.8 µM

Prompt line: Return reported TGI. Input compound: "CC[C@]1(O)C[C@@H]2CN(Cc3c([nH]c4ccccc34)[C@@](C(=O)OC)(c3cc4c(cc3OC)N(C)[C@H]3[C@@](O)(C(=O)OC)[C@H](OC(C)=O)[C@]5(CC)[C@@H]6C[C@@H]6CN6CC[C@]43[C@@H]65)C2)C1"
Response line: > 4.38 µM

Prompt line: Return value of TGI for input "CCNC(=S)N/N=C/c1cc(OC)ccc1O" , no commentary.
Response line: > 100 µM

Prompt line: Quote TGI reported for CC1CN(CCO)CC(C)O1 (centres undefined) please.
Response line: > 100 µM

Prompt line: Name the recorded TGI of the item CCOP1(=O)OCC2OC(n3cnc4c(N)ncnc43)C(O)C2O1 (centres undefined) in your answer.
Response line: > 100 µM

---

System: LOX IMVI melanoma
ASSAY TEXT: NCI tumour cell line growth inhibition, 48 h; in the data active = GI50 below about 0.43 µM; inactive = the rest
Outcome (select one): active, inactive

Prompt line: For this compound, state the assay outcome: "c1ccc([CH2][Sn]([CH2]c2ccccc2)([S]c2cccc3cccnc23)[S]c2cccc3cccnc23)cc1"
Response line: active

Prompt line: Each compound tested received a call. Report the one for COc1ccc(C(=O)CC2(O)C(=O)Nc3c(Cl)ccc(Cl)c32)cc1 (configuration not stated) .
Response line: inactive

Prompt line: Give the logged outcome of this assay for the following compound: "C=C1C(=O)O[C@@H]2[C@@H]3O[C@@](C)(CC/C=C(\C)CCC[C@@H]2C)[C@H](O)C[C@@H]13"
Response line: inactive

Prompt line: Given "N#Cc1c(N)nn(C(=O)c2ccc(NC(=O)c3ccccn3)cc2)c1-c1ccc(Cl)cc1" , state the outcome it received in this test.
Response line: inactive

Next:
Prompt line: What call does the record list for "COc1ccc(/C=C2/SC(=Nc3c(C)nn(-c4ccccc4)c3N)NC2=O)cc1" ?
Response line: inactive

Prompt line: Which outcome was assigned to "COc1cc(-c2cc(-c3ccc(N(C)C)cc3)nc(N3CCC(O)CC3)c2C#N)cc(OC)c1OC" in this test?
Response line: active

Prompt line: Called result for "COc1ccc(C(=O)/C=C/c2ccc(Cl)cc2)cc1S(N)(=O)=O"
Response line: inactive

Prompt line: Hi, sorry to bother you, what did the test record for "CCc1cc(C(N)=O)ccc1-n1nc(C(C)C)c2c(-n3cnc(-c4cnn(C)c4)c3)ccnc21" ?
Response line: inactive

Prompt line: Lab log entry: "Cc1ccc(CCC(=O)Nc2ncc(Cc3cc(Cl)ccc3Cl)s2)o1" — outcome as called in the assay?
Response line: active

Prompt line: Called result for "CCN1CCN(C(=O)[C@]23CC[C@@H](C)[C@H](C)[C@@H]2C2=CC[C@@H]4[C@@]5(C)C/C(=C/c6cccnc6)C(=O)C(C)(C)[C@@H]5CC[C@@]4(C)[C@]2(C)CC3)CC1"
Response line: inactive

Prompt line: Which outcome did this test record for the compound "Cc1cc(Cl)n2c(nc3ccccc32)c1C#N" ?
Response line: active

Prompt line: Please let me know the test result on file for "O=C1CCC/C=C\C[C@H]2C=C(Cl)C(=O)/C2=C/C[C@H](CCCCC(F)(F)F)OC(=O)CCC/C=C\C[C@H]2C=C(Cl)C(=O)/C2=C/C[C@H](CCCCC(F)(F)F)O1" .
Response line: active

Prompt line: Identify the outcome logged in this assay for the compound shown: "Cc1ncc(C(=O)Nc2ccc(CN3CCN(C)CC3)c(C(F)(F)F)c2)cc1C#Cc1c(N)ncc2ccc(C#N)cc12"
Response line: active

Prompt line: Each compound tested received a call. Report the one for "COc1ccc(CN2CCc3c(Cl)nc(N)nc3C2=O)c(OC)c1" .
Response line: inactive

Prompt line: What outcome does the record of this test show for "CCN(CC)CCCCCCCCNc1c2ccc(Cl)cc2nc2ccc(OC)cc12" ?
Response line: inactive

Prompt line: What call does the record list for "CC(C)Oc1cc(OCC(=O)O)cc(C(=O)N(CCC(N)=O)C(=O)Nc2ccc(C(=O)O)cc2OC(C)C)c1" ?
Response line: inactive

Prompt line: Assay outcome for CC(=O)O[C@@H]1C=CC(=O)C2(CC(=O)O[C@@H]2/C=C(\C)CCC=C(C)C)C1 (some centres not stated) : what was it?
Response line: active
